CC50 values for the compounds below.
PROTOCOL_DESCRIPTION: Evaluated for 50% cytotoxic concentration based on reduction of viability of mock-infected cells
Assay type: cell-based
APPLIED_CONDITIONS: human, MT4 cells (mock-infected)
MEASURED_QUANTITY: CC50 (µM)

COMPOUND	MEASURED_QUANTITY	LIMIT_SIGN	READOUT_NUMBER
CC(=O)Nc1cc(S(=O)(=O)O)cc2cc(S(=O)(=O)O)cc(O)c12	CC50	=	402
O=S(=O)(O)c1cc(O)c2c(O)cc(S(=O)(=O)O)cc2c1 [CHROMOTROPATE]	CC50	=	1180
O=C(O)CCCC(=O)Nc1cc(S(=O)(=O)O)cc2cc(S(=O)(=O)O)cc(O)c12	CC50	>	500
O=S(=O)(O)c1cc(NS(=O)(=O)c2ccc(-c3ccc(S(=O)(=O)Nc4cc(S(=O)(=O)O)cc5cc(S(=O)(=O)O)cc(S(=O)(=O)O)c45)cc3)cc2)c2c(S(=O)(=O)O)cc(S(=O)(=O)O)cc2c1	CC50	>	100
COc1cc(S(=O)(=O)O)cc2cc(S(=O)(=O)[O-])cc([N+](C)(C)C)c12	CC50	>	500
CC(=O)Nc1cc(S(=O)(=O)O)cc2cc(S(=O)(=O)O)cc(S(=O)(=O)O)c12	CC50	>	100
O=C(O)c1cc(NS(=O)(=O)c2ccc(-c3ccc(S(=O)(=O)Nc4cc(C(=O)O)c(O)c(S(=O)(=O)O)c4)cc3)cc2)cc(S(=O)(=O)O)c1O	CC50	=	247
Nc1c(S(=O)(=O)O)cc2cc(S(=O)(=O)O)cc(O)c2c1O	CC50	=	12

Cited source: ChEMBL document CHEMBL1126206
